test: NCI Yeast Anticancer Drug Screen. Data for the mlh1 rad18 strain (AID 175); conditions: S. cerevisiae mlh1 rad18 strain growth inhibition; at 5.0 µM (retest, dose inferred, filed as 0.5); active compounds read high
This is part of a sample that, as a whole, favours compounds with a hit. Of some 79,000 tested, about 15% had one in any assay.
Hi there, I'd appreciate the recorded growth inhibition for every entry that follows.
Numbers only, in %.

# example entries with known answers
{"molecule": "Cc1ccccc1N=C(N)Nc1ccccc1C (tested in a mixture with another compound)", "unit-of-measure": "%", "growth inhibition": -2}
{"molecule": "Cc1cc2nc(CC(=O)c3ccncc3)c(=O)[nH]c2cc1C", "unit-of-measure": "%", "growth inhibition": -18}

For each of the molecules below, note its growth inhibition.
1. CC(C)(C)c1ccc(CCO)cc1
2. Cc1cc(N/N=C/c2ccccn2)nc2ccccc12

1. -5
2. 11

For each of the molecules below, note its growth inhibition.
1. CSC(SC)=C(C#N)C(=O)Nc1cccc(Cl)c1
2. CC(C)c1cc([N+](=O)[O-])c(O)c([N+](=O)[O-])c1
3. COc1cccc(N=N/C(=N\NC(=O)c2cc(Br)ccc2O)c2ccc(N(CCC#N)CCC#N)cc2OC)c1

1. 56
2. 24
3. 26

For each of the molecules below, note its growth inhibition.
1. Cc1ccccc1N=NC(C#N)C#N
2. [Cl-].[Rh+3].c1ccc(-c2ccnc3c2ccc2c(-c4ccccc4)ccnc23)cc1.c1ccc(-c2ccnc3c2ccc2c(-c4ccccc4)ccnc23)cc1.c1ccc(-c2ccnc3c2ccc2c(-c4ccccc4)ccnc23)cc1
3. C=C1C(=O)OC2CC3(C)CCCC(C)C3=CC12 (configuration not stated)

78
-12
14

For each of the molecules below, note its growth inhibition.
1. O=C(Cc1nc2cc(Cl)c(Cl)cc2nc1CC(=O)c1cccnc1)c1cccnc1
2. CC1(C)OCC(COC(c2ccccc2)(c2ccccc2)c2ccccc2)O1 (configuration not stated)

1. -2
2. -5

----------
Hi there, I'd appreciate the recorded growth inhibition for every entry that follows.
experiment: NCI Yeast Anticancer Drug Screen. Data for the rad50 strain (AID 155);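 note: 0% = growth of vehicle-only cultures of the same strain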; details: S. cerevisiae rad50 strain growth inhibition; at 50.0 µM; active compounds read high
This is part of a sample that, as a whole, favours compounds with a hit. Of some 79,000 tested, about 15% had one in any assay. *1 amine or outer side, *2 acyl side, *3 side chain or, on linkers, in order; H or OH if unused. Where a SMILES comes first, the peptide text is derived from it. [ ]: non-standard residue; d: D form. The star is where a group is joined. X5 = CCC(=O)CC1CC(C)CC(C(=O)[*:2])N1[*:1]; X4 = CCCCCCCCC(C)C(=O)*; Aib = CC(C)(N)C(=O)O; X6 = CC(CN(C)CCO)N*
Numbers only, in %.

For each of the molecules below, note its growth inhibition.
1. Cc1onc(-c2ccccc2)c1C(=O)N/N=C/c1cc(Cl)cc(Cl)c1O
2. Cc1cc(I)nc2ccccc12

1: 80.6; 2: 68.4

For each of the molecules below, note its growth inhibition.
1. NNc1ccc(Cl)cc1Cl
2. O=C(c1ccc(O)c(Br)c1)c1ccc(O)c(Br)c1
3. Oc1ccc2ccccc2c1N=Nc1ccccn1
4. NC(CS/C(Cl)=C/Cl)C(=O)O (centres undefined)
5. CC(CSc1n[nH]c(=S)s1)c1ccccc1 (centres undefined)
6. CCNc1nnnn1CC
7. CCCCCCCCC(C)C(=O)N1CCCC1C(=O)N1C(CC(=O)CC)CC(C)CC1C(=O)NC(C)C(=O)NC(C)(C)C(=O)NC(C)(C)C(=O)NC(C(=O)NC(C)C(=O)NC(C)(C)C(=O)NC(C)(C)C(=O)NC(C)CN(C)CCO)C(C)CC (centres undefined) (X4-P[X5]A[Aib][Aib]IA[Aib][Aib]-X6; configuration not given here)

1. 98.4
2. 28.7
3. 98.2
4. 92.3
5. 97.1
6. -2.5
7. 91.6

For each of the molecules below, note its growth inhibition.
1. CCC[CH2][Sn]1([CH2]CCC)[O]C2C(CO)OC(n3ccc(N)nc3=O)C2[O]1 (centres undefined)
2. S=C1SCN(Cc2cccs2)CN1Cc1cccs1
3. CC(C)=CCCC(C)C1=C(O)C(=O)C(C)=CC1=O (centres undefined)
4. OC(CSc1ccccc1)CN1CCN(c2ccc(Cl)cc2)CC1 (centres undefined)

[86.8, 71.2, 88.8, 84.2]

For each of the molecules below, note its growth inhibition.
1. S=C1NC2=C(COc3ccccc32)C(c2ccc(Cl)cc2)N1 (centres undefined)
2. Oc1ccccc1N=Cc1ccccc1

1: 89.6; 2: 61

----------
experiment: NCI Yeast Anticancer Drug Screen. Data for the rad50 strain (AID 155);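 note: 0% = growth of vehicle-only cultures of the same strain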; conditions: S. cerevisiae rad50 strain growth inhibition; at 5.0 µM (retest, dose inferred, filed as 0.5)
This is part of a sample that, as a whole, favours compounds with a hit. Of some 79,000 tested, about 15% had one in any assay. The source made the active and inactive calls. Cut-off read from the data, not from the text of the source: active = growth inhibition above about 70%; inactive = the rest.
Please reply with one of these outcomes: active, inactive

Hi team, can someone confirm the assay call for "NC(=S)N/N=C\c1nccc2c(N)cccc12" ?
inactive

Now give it for "C(=N\Nc1ccc2ccccc2n1)/c1ccccn1" too.
inactive

----------
test: NCI Yeast Anticancer Drug Screen. Data for the rad50 strain (AID 155);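 note: 0% = growth of vehicle-only cultures of the same strain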; details: S. cerevisiae rad50 strain growth inhibition; at 5.0 µM (retest, dose inferred, filed as 0.5); active compounds read high
This is part of a sample that, as a whole, favours compounds with a hit. Of some 79,000 tested, about 15% had one in any assay.
measured-endpoint: growth inhibition (%)
Answers are plain numbers, in %.

# example entries with known answers
{"compound": "Cc1cccc2c(N)c3ccccc3nc12", "unit-of-measure": "%", "growth inhibition": 12}
{"compound": "Cc1cc(Br)c2nsnc2c1[N+](=O)[O-]", "unit-of-measure": "%", "growth inhibition": 33}
{"compound": "CCCOS(=O)(=O)c1ccccc1", "unit-of-measure": "%", "growth inhibition": 14}
{"compound": "O=C1C=CC(=O)c2c(O)c(CO)c(CO)c(O)c21", "unit-of-measure": "%", "growth inhibition": 28}
{"compound": "O=[N+]([O-])c1ccc(C2N(Cc3ccc(Cl)cc3)CCN2Cc2ccc(Cl)cc2)cc1", "unit-of-measure": "%", "growth inhibition": 58}

For each of the compounds below, note its growth inhibition.
1. C=CCCCCCCCCC(=O)NN
2. CCOC(=O)C1=C(C(=O)c2ccccc2)C(c2cccc([N+](=O)[O-])c2)C(C(=O)c2ccccc2)=C(C(=O)OCC)N1
3. O=C1/C(=C\c2ccc([N+](=O)[O-])cc2)CS(=O)(=O)C/C1=C/c1ccc([N+](=O)[O-])cc1
4. O=C1C=CC(O)=CC1=P(c1ccccc1)(c1ccccc1)c1ccccc1
5. Cc1ccc(-c2c(C#N)c(-c3ccc(C)cc3)n(NS(=O)(=O)c3ccccc3)c(=O)c2C#N)cc1
6. CCN(CC)CCNC(Cc1ccccc1)c1ccc(OCc2ccccc2)cc1 (stereo not given)
7. CCCN(CCC)C(=O)c1ccc(C)cc1

1. 18
2. -3
3. 81
4. 2
5. 30
6. 39
7. 1

----------
experiment: NCI Yeast Anticancer Drug Screen. Data for the rad50 strain (AID 155);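 note: 0% = growth of vehicle-only cultures of the same strain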; settings: S. cerevisiae rad50 strain growth inhibition; at 50.0 µM (retest, dose inferred, filed as 5.0); active compounds read high
This is part of a sample that, as a whole, favours compounds with a hit. Of some 79,000 tested, about 15% had one in any assay.
measured-endpoint: growth inhibition (%)
Numbers only, in %.

{"molecule": "Fc1ccc(NCCS)cc1", "unit-of-measure": "%", "growth inhibition": 90}
{"molecule": "CC(=O)N1CC(=O)NC1=S", "unit-of-measure": "%", "growth inhibition": -18}
{"molecule": "Cc1cc(I)nc2ccccc12", "unit-of-measure": "%", "growth inhibition": 15}

For each of the molecules below, note its growth inhibition.
1. CCc1cnc2ccccc2c1/C=C/c1ccc(N(C)C)cc1
2. CCC[CH2][Sn]1([CH2]CCC)[O]C2C(CO)OC(n3ccc(N)nc3=O)C2[O]1 (stereo not drawn)

96
97

For each of the molecules below, note its growth inhibition.
1. CC1(C)CCCC2=C1C(=O)N(SC(Cl)(Cl)Cl)C2=O
2. O=C1C=CC(=O)N1c1ccccc1
3. O=C(c1ccccc1)c1cc2ccccc2oc1=O
4. Cc1onc(-c2ccccc2)c1C(=O)N/N=C/c1cc(Cl)cc(Cl)c1O
5. CCCCCCN(CCCCCC)CCCCCCCCCCCO
6. On1c(-c2ccccc2)nc2ccccc2c1=S
7. Oc1ccc(Nc2ccc3ccccc3c2)cc1
8. OC(c1cc2ccc(C(F)(F)F)cc2c2cc(C(F)(F)F)ccc12)C1CCCCN1 (stereo not drawn)

1. 99
2. 98
3. 71
4. 95
5. 98
6. 39
7. 97
8. 98

For each of the molecules below, note its growth inhibition.
1. Cc1ccc2[nH]cc(CC(=O)O)c2c1
2. CC(C)(C)N/N=C(/Cc1nc2c3c(ccc2[nH]c1=O)C(=O)c1ccccc1C3=O)C(=O)NC1=C(Cl)C(=O)c2ccccc2C1=O
3. CCC(=O)c1cc([N+](=O)[O-])c(Br)s1
4. COc1ccc2nc3cc(Cl)ccc3c(NCCCCCN3CCCCC3)c2c1
5. CCCCCCCCCCCC(=O)OC(C)C(=O)NCCCC (stereo not drawn)

[99, 91, 99, 70, 21]
